Reported IC50 by item:
Molecular target: HLA-A*02:06
Assay: IEDB peptide-MHC binding, purified MHC/competitive/radioactivity; bounds were set here for any values at or beyond the usual limits of such assays
Settings: source organism: Vaccinia virus WR
Include the unit after the number when you answer.

**Query** IC50 for `FVLALYSPPL` ?
**Result** 212 nM

**Query** IC50 for `LIVILFIMFM` ?
**Result** 120 nM

**Query** IC50 for `RIASILSLET` ?
**Result** 751 nM

**Query** IC50 for `MMVILPDKI` ?
**Result** 909 nM

**Query** IC50 for `GLLDSIKMI` ?
**Result** 43 nM

**Query** IC50 for `MAGVEVRYI` ?
**Result** 2050 nM

**Query** IC50 for `FTDCRTIDA` ?
**Result** 2710 nM

**Query** IC50 for `LMTLDDLAI` ?
**Result** 288 nM

Continuing:
**Query** IC50 for `IAIFNNRNLA` ?
**Result** 890 nM

**Query** IC50 for `KLLSTSNVIT` ?
**Result** 1550 nM

**Query** IC50 for `VQEFIFSAL` ?
**Result** 198 nM

**Query** IC50 for `TTLLNETAKV` ?
**Result** 1650 nM

**Query** IC50 for `KVEKYLPEVI` ?
**Result** 734 nM

**Query** IC50 for `KINEMVDELV` ?
**Result** 3060 nM

**Query** IC50 for `NMINKLYGYA` ?
**Result** 137 nM

**Query** IC50 for `QLYTISSESL` ?
**Result** 4740 nM

* * *

Molecular target: HLA-A*02:01
Test: IEDB peptide-MHC binding, purified MHC/competitive/radioactivity; bounds were set here for any values at or beyond the usual limits of such assays
Settings: source organism: Vaccinia virus WR
pIC50: −log10 of the molar value.
Mark y for reported pIC50 of 6 or greater; mark n for anything smaller.

**Query** Reported pIC50 at or above 6? `FLLRSIIVA`
**Result** y

**Query** Reported pIC50 at or above 6? `GMQFDKVYL`
**Result** y

**Query** Reported pIC50 at or above 6? `KINEMVDEL`
**Result** y

**Query** Reported pIC50 at or above 6? `RAAIDRQVSV`
**Result** y

Read the next record carefully.
**Query** Reported pIC50 at or above 6? `SISVVFSTNL`
**Result** n

* * *

Molecular target: HLA-A*02:01
Test: IEDB peptide-MHC binding, purified MHC/competitive/radioactivity; bounds were set here for any values at or beyond the usual limits of such assays
Conditions: source organism: Mammarenavirus choriomeningitidis
IC50 less than 100 nM is 1; IC50 greater than or equal to 100 nM is 0.

**Query** A record lists `RNHLRDLMGV` . Is its IC50 below 100 nM?
**Result** 0

**Query** A record lists `NLNQVIQSV` . Is its IC50 below 100 nM?
**Result** 1

**Query** A record lists `SIISHNFCNL` . Is its IC50 below 100 nM?
**Result** 0

**Query** A record lists `FMLNVSYLC` . Is its IC50 below 100 nM?
**Result** 0

**Query** A record lists `MSCDDVVFGI` . Is its IC50 below 100 nM?
**Result** 0

**Query** A record lists `AVYNFATCGI` . Is its IC50 below 100 nM?
**Result** 0

**Query** A record lists `NSLILLECFV` . Is its IC50 below 100 nM?
**Result** 1

**Query** A record lists `KCMSAALKNL` . Is its IC50 below 100 nM?
**Result** 0

Read the next record carefully.
**Query** A record lists `ALPHIIDEV` . Is its IC50 below 100 nM?
**Result** 1

* * *

Target: HLA-A*02:06
Assay: IEDB peptide-MHC binding, cellular MHC/competitive/fluorescence; bounds were set here for any values at or beyond the usual limits of such assays
Details: source organism: Vaccinia virus WR
MEASURED_METRIC: pIC50
Please note pIC50 is a logarithmic value: minus log10 of concentration in mol/L. Answer with that number alone.

Look over these answered cases.
**Query** pIC50 for `RAGYSIVEL` ?
**Result** 5.30

**Query** pIC50 for `LTSNCTRTT` ?
**Result** 4.39

**Query** pIC50 for `GIRCVSNLDI` ?
**Result** 4.48

**Query** pIC50 for `DVDIPTFNSL` ?
**Result** 5.01

**Query** pIC50 for `MQLKIDKLT` ?
**Result** 4.22

Continuing:
**Query** pIC50 for `IAEYIAGLKI` ?
**Result** 4.99

**Query** pIC50 for `RTWKVLSIMA` ?
**Result** 5.24

**Query** pIC50 for `RLRYNLCKYL` ?
**Result** 4.80

**Query** pIC50 for `SMYTRLRQDT` ?
**Result** 4.38

**Query** pIC50 for `NTLIQYRQQL` ?
**Result** 4.68

**Query** pIC50 for `EIDVSEVKTL` ?
**Result** 4.25

**Query** pIC50 for `LAEHISDSI` ?
**Result** 4.72

**Query** pIC50 for `GLSASDVDM` ?
**Result** 4.86

**Query** pIC50 for `MLKLFTHDIM` ?
**Result** 4.69

* * *

Target: HLA-A*02:01
Experiment: IEDB peptide-MHC binding, cellular MHC/competitive/fluorescence; bounds were set here for any values at or beyond the usual limits of such assays
Conditions: source organism: Vaccinia virus WR
MEASURED_METRIC: pIC50
Please note pIC50 is a logarithmic value: minus log10 of concentration in mol/L. Answer with that number alone.

**Query** pIC50 for `QIHLYYNSNI` ?
**Result** 4.31

**Query** pIC50 for `DTQQHPIVV` ?
**Result** 4.86

**Query** pIC50 for `ILRSIEGEL` ?
**Result** 5.05

**Query** pIC50 for `YVHSLLYSSM` ?
**Result** 4.54

Below: the item to evaluate.
**Query** pIC50 for `ETMYLTMKA` ?
**Result** 4.72

* * *

Reported IC50 by item:
Molecular target: HLA-A*02:02
Assay: IEDB peptide-MHC binding, cellular MHC/competitive/fluorescence; bounds were set here for any values at or beyond the usual limits of such assays
Settings: source organism: Vaccinia virus WR
Kindly answer with a numeric value in µM, unit omitted.

**Query** IC50 for `ITPTIEDDKI` ?
**Result** 18.7

Continuing:
**Query** IC50 for `RLEVIGLTT` ?
**Result** 20

**Query** IC50 for `RQQLEDIFM` ?
**Result** 5.73

**Query** IC50 for `VVIVENDNV` ?
**Result** 13.2

**Query** IC50 for `VIPFDDIVRT` ?
**Result** 62.8

**Query** IC50 for `EIKAEMQLKI` ?
**Result** 16.9

**Query** IC50 for `DTDIVNNFI` ?
**Result** 9.32

**Query** IC50 for `EQYTCNKPYT` ?
**Result** 14

**Query** IC50 for `NLERETGLSA` ?
**Result** 17.6

* * *

Reported pIC50 by item:
Biological target: HLA-A*02:02
Experiment: IEDB peptide-MHC binding, purified MHC/competitive/radioactivity; bounds were set here for any values at or beyond the usual limits of such assays
Conditions: source organism: SARS-CoV1
Please note pIC50 is a logarithmic value: minus log10 of concentration in mol/L. Answer with that number alone.

**Query** pIC50 for `TQWSLFFFV` ?
**Result** 7.10

**Query** pIC50 for `KIILFLTLI` ?
**Result** 7.17

**Query** pIC50 for `SLVTSFLLM` ?
**Result** 7.18

**Query** pIC50 for `ALVCYIVMPV` ?
**Result** 8.92

**Query** pIC50 for `TLNEDLLEI` ?
**Result** 8.85

* * *

Biological target: HLA-A*02:01
Test: IEDB peptide-MHC binding, purified MHC/competitive/radioactivity; bounds were set here for any values at or beyond the usual limits of such assays
Details: source organism: Vaccinia virus WR
Reported IC50 by item:
Kindly answer with a numeric value in nM, unit omitted.

**Query** Tell me reported IC50 for `TISGNIYSA` , tested with HLA-A*02:01.
**Result** 207

**Query** Tell me reported IC50 for `YLLGDSDSVA` , tested with HLA-A*02:01.
**Result** 20

**Query** Tell me reported IC50 for `FVNKHLPTM` , tested with HLA-A*02:01.
**Result** 1590

**Query** Tell me reported IC50 for `EISSNDNAKI` , tested with HLA-A*02:01.
**Result** 508

**Query** Tell me reported IC50 for `ILATLNTLIT` , tested with HLA-A*02:01.
**Result** 443

**Query** Tell me reported IC50 for `ILRNYLRLYI` , tested with HLA-A*02:01.
**Result** 1

**Query** Tell me reported IC50 for `GLDVKNVQL` , tested with HLA-A*02:01.
**Result** 278
